test system: smooth muscle cells; test: Penetration of carrier-conjugated peptides into smooth muscle cells; immunofluorescence of α-SM-actin polymerization; format: cell-based, Wistar rats; conditions: 1 mg/ml in cell culture solution, 1 hour after treatment
Numbered stars: 1 amine (or outer) side, 2 acyl side, 3 side chain; on linkers, the order of the positions; unused ones are H or OH. Ethylenediamine = C(CN[*:2])N[*:1]
EXPERIMENTAL READOUT: rhodamine staining of the smooth muscle α-actin polymers (right picture)

SUBSTANCE: Ac-Glu-Glu-Glu-Asp-Lys-NH—CH2—CH2—NH—C═O—(CH2)6—CH3 (Ac-EEEDK-{Ethylenediamine-octanoyl}) [reference compound]
TEST RESULT: strong
--
SUBSTANCE: Ac-Glu-Glu-Glu-Asp-Lys(ε-D,L-6,8-dithiooctanoylamide)-NH—CH2—CH2—NH—C═O—(CH2)6—CH3 (Ac-EEEDK(D,L‑6,8‑dithiooctanoyl)-{Ethylenediamine-octanoyl})
TEST RESULT: slight
--
SUBSTANCE: Ac-Glu-Glu-Glu-Asp-Lys(E-D,L-6,8-dithiooctanoylamide)-NH—CH2—CH2—NH-hexadecanoylamide (Ac-EEEDK(D,L‑6,8‑dithiooctanoyl)-{Ethylenediamine-hexadecanoyl})
TEST RESULT: slight
--
SUBSTANCE: Ac-Glu-Glu-Glu-Asp-NH2 (Ac-EEED-NH2) [reference compound]
TEST RESULT: strong
--
SUBSTANCE: Ac-Glu-Glu-Glu-Asp-Lys-NH—CH2—CH2—NH-hexadecanoylamide (Ac-EEEDK-{Ethylenediamine-hexadecanoyl}) [reference compound]
TEST RESULT: strong
